- tested on: EGFR T790M (Homo sapiens (Human), UniProt P00533, T790M)
- Sequence (P00533 25-1210 T790M): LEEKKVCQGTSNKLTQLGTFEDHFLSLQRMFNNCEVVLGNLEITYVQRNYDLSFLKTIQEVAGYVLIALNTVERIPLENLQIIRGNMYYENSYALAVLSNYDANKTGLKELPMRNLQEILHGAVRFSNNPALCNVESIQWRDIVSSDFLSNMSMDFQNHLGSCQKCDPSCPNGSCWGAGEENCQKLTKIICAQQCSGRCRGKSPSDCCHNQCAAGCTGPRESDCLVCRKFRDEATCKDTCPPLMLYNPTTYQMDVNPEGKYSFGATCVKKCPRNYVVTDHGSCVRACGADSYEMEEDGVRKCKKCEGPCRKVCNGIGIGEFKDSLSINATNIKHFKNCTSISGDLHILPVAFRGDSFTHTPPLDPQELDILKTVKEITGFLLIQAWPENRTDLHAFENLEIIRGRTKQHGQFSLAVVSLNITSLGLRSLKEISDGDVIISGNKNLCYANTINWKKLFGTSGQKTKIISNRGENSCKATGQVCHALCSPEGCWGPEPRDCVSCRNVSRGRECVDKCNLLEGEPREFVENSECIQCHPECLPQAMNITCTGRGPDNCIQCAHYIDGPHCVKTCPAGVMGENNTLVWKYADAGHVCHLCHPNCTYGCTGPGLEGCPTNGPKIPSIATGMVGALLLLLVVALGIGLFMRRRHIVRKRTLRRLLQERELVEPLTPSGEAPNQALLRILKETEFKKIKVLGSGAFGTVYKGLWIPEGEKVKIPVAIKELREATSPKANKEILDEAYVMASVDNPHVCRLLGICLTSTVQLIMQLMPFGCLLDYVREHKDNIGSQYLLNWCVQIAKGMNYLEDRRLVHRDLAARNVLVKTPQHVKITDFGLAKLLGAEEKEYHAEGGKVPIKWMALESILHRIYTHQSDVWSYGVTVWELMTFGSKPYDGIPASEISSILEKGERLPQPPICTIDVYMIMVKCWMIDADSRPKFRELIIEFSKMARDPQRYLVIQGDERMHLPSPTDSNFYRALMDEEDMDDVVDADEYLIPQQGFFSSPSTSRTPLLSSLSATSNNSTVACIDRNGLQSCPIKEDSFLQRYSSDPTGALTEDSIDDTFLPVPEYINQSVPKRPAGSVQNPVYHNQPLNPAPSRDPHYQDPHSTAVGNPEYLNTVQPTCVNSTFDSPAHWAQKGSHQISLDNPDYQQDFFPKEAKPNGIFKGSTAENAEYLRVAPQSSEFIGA
- method notes: Mobility Shift Assay, in vitro enzyme-inhibiting activity, EGFR T790M
- Type: biochemical
- experimental setup: Table 4; Km ATP; unit inferred
measure: pIC50
Quick note: pIC50 values are minus log10 of concentrations in mol/L.

*Q* Consider the compound "C=CC(=O)Nc1cccc(Nc2nc(Nc3ccc(N4CC5CCC(C4)N5C(C)=O)cc3OC)ncc2C(F)(F)F)c1" and give its measured pIC50.
*A* 8.21

*Q* Consider the compound "C=CC(=O)Nc1cccc(Nc2nc(Nc3ccc(C4CCN(C)CC4)cc3OC)ncc2C(F)(F)F)c1" and give its measured pIC50.
*A* 9.49

*Q* Consider the compound "C=CC(=O)Nc1cccc(Nc2nc(Nc3ccc(C4CCN(C(=O)CCF)CC4)cc3OC)ncc2C(F)(F)F)c1" and give its measured pIC50.
*A* 8.15

Lab note: next compound to report on.
*Q* Consider the compound "C=CC(=O)Nc1cccc(Nc2nc(Nc3cccc4c3CCN(C(C)=O)C4)ncc2C(F)(F)F)c1" and give its measured pIC50.
*A* 8.00

====

- method notes: Pharmacokinetics in nude mouse
- Format: in vivo
- experimental setup: female, BALB/c nude, plasma, po, 10 mg/kg
measure: AUC(0-t) (ng·h/mL)
Write it as a number; the unit ng·h/mL goes unstated.

*Q* Consider the compound "C=CC(=O)Nc1cccc(Nc2nc(Nc3ccc(C4CCN(C(C)=O)CC4)cc3OC)ncc2C(F)(F)F)c1" and give its measured AUC(0-t).
*A* 5660

====

- method notes: Pharmacokinetics in nude mouse
- Format: in vivo
- experimental setup: female, BALB/c nude, plasma, po, 10 mg/kg, read-out: F (absolute bioavailability)
measure: bioavailability (%)
Write it as a number; the unit % goes unstated.

*Q* Consider the compound C=CC(=O)Nc1cccc(Nc2nc(Nc3ccc(C4CCN(C(C)=O)CC4)cc3OC)ncc2C(F)(F)F)c1 [Compound 2] and give its measured bioavailability.
*A* 48

====

- method notes: Pharmacokinetics in dog
- Format: in vivo, male Beagle dog
- experimental setup: male, plasma; Beagle dog, po, 1.28 mg/kg; read-out: F (absolute bioavailability)
measure: bioavailability (%)
Write it as a number; the unit % goes unstated.

*Q* Consider the molecule C=CC(=O)Nc1cccc(Nc2nc(Nc3ccc(N4CCC(N5CCOCC5)CC4)cc3OC)ncc2C(F)(F)F)c1 [Compound 28] and give its measured bioavailability.
*A* 46

====

- tested on: EGFR T790M (Homo sapiens (Human), UniProt P00533, T790M)
- method notes: Mobility Shift Assay, in vitro enzyme-inhibiting activity, EGFR T790M
- Type: biochemical
- experimental setup: Table 4; ratio of IC50
measure: Selectivity (WT/T790M)
Write the number on its own, no unit after it.

These solved cases illustrate the format of a correct answer.
*Q* Consider the compound "C=CC(=O)Nc1cccc(Nc2nc(Nc3ccc(OCCCS(C)(=O)=O)cc3OC)ncc2C(F)(F)F)c1" and give its measured Selectivity (WT/T790M).
*A* 44.2

*Q* Consider the compound "C=CC(=O)Nc1cccc(Nc2nc(Nc3cccc4c3CCN(C(C)=O)C4)ncc2C(F)(F)F)c1" and give its measured Selectivity (WT/T790M).
*A* 129.7

*Q* Consider the compound "C=CC(=O)Nc1cccc(Nc2nc(Nc3ccc(C4CCN(C)CC4)cc3OC)ncc2C(F)(F)F)c1" and give its measured Selectivity (WT/T790M).
*A* 34.4

*Q* Consider the compound "C=CC(=O)Nc1cccc(Nc2nc(Nc3ccc(C4CCN(S(C)(=O)=O)CC4)cc3OC)ncc2C(F)(F)F)c1" and give its measured Selectivity (WT/T790M).
*A* 90.7

*Q* Consider the compound "C=CC(=O)Nc1cccc(Nc2nc(Nc3ccc(N4CCC(N5CCOCC5)CC4)cc3OC)ncc2C(F)(F)F)c1" and give its measured Selectivity (WT/T790M).
*A* 60.8

Lab note: next compound to report on.
*Q* Consider the compound "C=CC(=O)Nc1cccc(Nc2nc(Nc3ccc(C4CCN(C5COC5)CC4)cc3OC)ncc2C(F)(F)F)c1" and give its measured Selectivity (WT/T790M).
*A* 58.6

====

- tested on: wild-type EGFR (WT EGFR) (Homo sapiens (Human), UniProt P00533)
- Sequence (P00533 25-1210): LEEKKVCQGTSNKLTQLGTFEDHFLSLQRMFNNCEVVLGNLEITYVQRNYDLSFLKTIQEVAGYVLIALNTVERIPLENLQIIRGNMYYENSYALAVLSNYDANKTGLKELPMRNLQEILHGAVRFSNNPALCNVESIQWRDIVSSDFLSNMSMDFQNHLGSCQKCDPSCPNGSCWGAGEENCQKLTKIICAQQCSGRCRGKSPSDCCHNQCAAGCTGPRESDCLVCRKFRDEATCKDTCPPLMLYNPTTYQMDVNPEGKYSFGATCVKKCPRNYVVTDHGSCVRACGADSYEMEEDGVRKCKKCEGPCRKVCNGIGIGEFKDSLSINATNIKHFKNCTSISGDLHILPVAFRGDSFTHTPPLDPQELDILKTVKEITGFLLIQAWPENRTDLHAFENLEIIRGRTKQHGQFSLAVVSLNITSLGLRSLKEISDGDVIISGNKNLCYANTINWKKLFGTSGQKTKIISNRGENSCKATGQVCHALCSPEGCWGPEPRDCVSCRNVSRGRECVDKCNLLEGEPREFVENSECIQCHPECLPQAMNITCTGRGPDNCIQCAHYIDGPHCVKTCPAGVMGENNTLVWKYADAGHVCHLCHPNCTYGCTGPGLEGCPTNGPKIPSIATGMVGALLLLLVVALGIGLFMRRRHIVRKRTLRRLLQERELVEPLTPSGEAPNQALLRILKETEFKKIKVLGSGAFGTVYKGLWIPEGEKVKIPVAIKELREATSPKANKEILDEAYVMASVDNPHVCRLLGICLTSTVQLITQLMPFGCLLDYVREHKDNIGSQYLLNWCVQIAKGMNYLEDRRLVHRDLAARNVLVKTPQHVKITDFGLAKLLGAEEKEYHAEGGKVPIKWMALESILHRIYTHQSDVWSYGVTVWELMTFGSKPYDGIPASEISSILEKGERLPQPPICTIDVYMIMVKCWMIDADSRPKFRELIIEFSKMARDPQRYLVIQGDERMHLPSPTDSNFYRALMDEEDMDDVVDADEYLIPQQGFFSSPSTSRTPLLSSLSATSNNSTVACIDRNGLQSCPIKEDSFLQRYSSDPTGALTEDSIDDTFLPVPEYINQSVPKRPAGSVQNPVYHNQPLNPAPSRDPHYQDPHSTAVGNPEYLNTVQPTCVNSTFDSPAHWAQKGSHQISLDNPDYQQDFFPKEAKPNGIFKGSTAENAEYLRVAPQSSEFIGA
- method notes: Mobility Shift Assay, in vitro enzyme-inhibiting activity, wild-type EGFR
- Format: biochemical
- experimental setup: Table 7; Km ATP
measure: pIC50
Quick note: pIC50 values are minus log10 of concentrations in mol/L.

*Q* Fill in the recorded pIC50 for this molecule, with wild-type EGFR (WT EGFR) (Homo sapiens (Human), UniProt P00533) as test system: C=CC(=O)Nc1cccc(Nc2nc(Nc3ccc(C4CCN(C(C)=O)CC4)cc3OC)ncc2C(F)(F)F)n1 [Compound 4]
*A* 6.37

*Q* Fill in the recorded pIC50 for this molecule, with wild-type EGFR (WT EGFR) (Homo sapiens (Human), UniProt P00533) as test system: C=CC(=O)Nc1cccc(Nc2nc(Nc3ccc(N4CC5(CN(C(C)=O)C5)C4)cc3OC)ncc2C(F)(F)F)c1 [Compound 31]
*A* 6.68

*Q* Fill in the recorded pIC50 for this molecule, with wild-type EGFR (WT EGFR) (Homo sapiens (Human), UniProt P00533) as test system: C=CC(=O)Nc1cccc(Nc2nc(Nc3ccc(C4CCN(C(=O)CC)CC4)cc3OC)ncc2C(F)(F)F)c1 [Compound 24]
*A* 6.18

*Q* Fill in the recorded pIC50 for this molecule, with wild-type EGFR (WT EGFR) (Homo sapiens (Human), UniProt P00533) as test system: C=CC(=O)Nc1cccc(Nc2nc(Nc3ccc(C4CCNC(=O)C4)cc3OC)ncc2C(F)(F)F)c1 (centres unmarked) [Compound 22]
*A* 6.74

Lab note: next molecule to report on.
*Q* Fill in the recorded pIC50 for this molecule, with wild-type EGFR (WT EGFR) (Homo sapiens (Human), UniProt P00533) as test system: C=CC(=O)Nc1cccc(Nc2nc(Nc3ccc(N4C[C@H]5CN(C(C)=O)C[C@H]5C4)cc3OC)ncc2C(F)(F)F)c1 [Compound 9-1]
*A* 6.25

====

- Tested on: A431 cell (wild-type EGFR gene)
- method notes: In vitro cytologic activity, Celltiter-Glo, A431 cells
- Assay type: cell-based
- experimental setup: Homo sapiens, A-431, 72 h, Table 9
measure: pIC50
Quick note: pIC50 values are minus log10 of concentrations in mol/L.

These solved cases illustrate the format of a correct answer.
*Q* Consider the compound "C=CC(=O)Nc1cccc(Nc2nc(Nc3ccc(N4CCN(C(C)=O)CC4)cc3OC)ncc2C(F)(F)F)n1" and give its measured pIC50.
*A* 6.35

*Q* Consider the compound C=CC(=O)Nc1cccc(Nc2nc(Nc3ccc(N4CCN(C(C)=O)CC4)cc3OC)ncc2C(F)(F)F)c1 [CO-1686, reference compound] and give its measured pIC50.
*A* 6.04

*Q* Consider the compound "C=CC(=O)Nc1cccc(Nc2nc(Nc3cc4c(cc3OC)CN(C(C)=O)CC4)ncc2C(F)(F)F)c1" and give its measured pIC50.
*A* 5.75

Lab note: next compound to report on.
*Q* Consider the compound "C=CC(=O)Nc1cccc(Nc2nc(Nc3ccc(C4CCN(C(C)=O)CC4)cc3OC)ncc2C(F)(F)F)c1" and give its measured pIC50.
*A* 5.73

====

- tested on: EGFR T790M-L858R (Homo sapiens (Human), UniProt P00533, L858R/T790M)
- Sequence (P00533 25-1210 T790M/L858R): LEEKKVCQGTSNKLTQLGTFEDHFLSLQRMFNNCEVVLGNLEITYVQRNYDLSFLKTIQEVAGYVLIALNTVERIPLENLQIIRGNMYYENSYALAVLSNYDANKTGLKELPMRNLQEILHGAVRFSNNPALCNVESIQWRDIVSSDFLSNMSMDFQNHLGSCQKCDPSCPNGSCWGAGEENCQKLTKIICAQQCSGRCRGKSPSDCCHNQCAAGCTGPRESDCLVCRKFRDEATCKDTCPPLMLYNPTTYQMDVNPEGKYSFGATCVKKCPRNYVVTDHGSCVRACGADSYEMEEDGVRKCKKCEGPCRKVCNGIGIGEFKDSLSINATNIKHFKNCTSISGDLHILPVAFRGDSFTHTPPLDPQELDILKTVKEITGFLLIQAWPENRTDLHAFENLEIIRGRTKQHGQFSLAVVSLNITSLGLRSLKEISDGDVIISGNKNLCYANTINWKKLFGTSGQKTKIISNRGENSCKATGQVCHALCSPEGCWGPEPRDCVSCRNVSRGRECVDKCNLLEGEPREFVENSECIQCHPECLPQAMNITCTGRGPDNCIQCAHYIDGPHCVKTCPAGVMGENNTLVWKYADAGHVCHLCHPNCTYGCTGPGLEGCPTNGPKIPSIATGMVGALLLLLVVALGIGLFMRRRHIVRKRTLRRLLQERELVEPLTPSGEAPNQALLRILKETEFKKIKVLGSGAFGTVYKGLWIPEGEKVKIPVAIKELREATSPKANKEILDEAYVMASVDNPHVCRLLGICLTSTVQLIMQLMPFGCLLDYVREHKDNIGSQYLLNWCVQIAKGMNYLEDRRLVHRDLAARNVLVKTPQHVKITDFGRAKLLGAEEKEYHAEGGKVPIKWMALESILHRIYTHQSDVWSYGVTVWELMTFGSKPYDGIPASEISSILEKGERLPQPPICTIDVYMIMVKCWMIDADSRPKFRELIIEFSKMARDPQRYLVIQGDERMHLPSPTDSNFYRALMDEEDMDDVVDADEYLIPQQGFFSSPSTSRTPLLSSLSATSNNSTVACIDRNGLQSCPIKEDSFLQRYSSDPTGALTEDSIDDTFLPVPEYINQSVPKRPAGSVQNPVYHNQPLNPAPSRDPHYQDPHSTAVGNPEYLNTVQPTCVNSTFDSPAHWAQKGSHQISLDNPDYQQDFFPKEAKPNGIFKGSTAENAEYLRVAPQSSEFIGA
- method notes: Mobility Shift Assay, in vitro enzyme-inhibiting activity, EGFR T790M-L858R
- Format: biochemical
- experimental setup: Table 6; Km ATP
measure: IC50

*Q* Fill in the recorded IC50 for this compound, with EGFR T790M-L858R (Homo sapiens (Human), UniProt P00533, L858R/T790M) as test system: C=CC(=O)Nc1cccc(Nc2nc(Nc3ccc(C4CCN(C)C(=O)C4)cc3OC)ncc2C(F)(F)F)c1 (stereo not shown)
*A* 3.3 nM

====

- method notes: Pharmacokinetics in dog
- Type: in vivo, male Beagle dog
- experimental setup: male, plasma; Beagle dog, po, 0.54 mg/kg
measure: AUC(0-t) (ng·h/mL)
Write it as a number; the unit ng·h/mL goes unstated.

*Q* Consider the compound "C=CC(=O)Nc1cccc(Nc2nc(Nc3ccc(C4CCN(C(C)=O)CC4)cc3OC)ncc2C(F)(F)F)c1" and give its measured AUC(0-t).
*A* 528

====

- method notes: Pharmacokinetics in dog
- Format: in vivo, male Beagle dog
- experimental setup: male, plasma; Beagle dog, po, 1.28 mg/kg
measure: Cmax (ng/mL)
Write it as a number; the unit ng/mL goes unstated.

*Q* Consider the compound C=CC(=O)Nc1cccc(Nc2nc(Nc3ccc(N4CCC(N5CCOCC5)CC4)cc3OC)ncc2C(F)(F)F)c1 [Compound 28] and give its measured Cmax.
*A* 523

====

- method notes: Pharmacokinetics in dog
- Assay type: in vivo, male Beagle dog
- experimental setup: male, plasma; Beagle dog, po, 1 mg/kg
- Experimental: Test animal: male Beagle dog, 3 dogs/administration route/compound, weight: 7-12 kg. Solvent for intraveneous injection (iv) of Compound 31: 20% DMF (N,N-dimethylformamide)+20% PEG400 (polyethylene glycol 400)+60% sterile water for injection Compound 31 (15.40 mg) was weighed, dissolved in solvent for intraveneous injection ultrasonically, and mixed homogeneously under vortexing, to get a clear and transparent compound solution at a theoretical concentration of 0.5 mg/mL. […]
measure: AUC(0-t) (ng·h/mL)
Write it as a number; the unit ng·h/mL goes unstated.

*Q* Consider the compound "C=CC(=O)Nc1cccc(Nc2nc(Nc3ccc(N4CC5(CN(C(C)=O)C5)C4)cc3OC)ncc2C(F)(F)F)c1" and give its measured AUC(0-t).
*A* 545
